pEC50 overview
System: THP1 luciferase reporter cells
Method notes: cells
Assay type: cell-based
Setup conditions: Homo sapiens, THP-1, 16 h, read-out: THP1-ISG-Luc with PFO, EC50
pEC50: −log10 of the molar value.

# Compound, Endpoint result
rows = [
    ("COC1C2OP(=O)(O)OC[C@H]3O[C@@H](n4cnc5c(N)ncnc54)C(O)C3OP(=O)(O)OC[C@H]1O[C@H]2n1cnc2c(=O)[nH]c(N)nc21 (stereo in doubt)", "> 7.00"),
    ("Nc1ncnc2c1ccn2[C@@H]1O[C@@H]2COP(=O)(S)OC3C(O)[C@@H](COP(=O)(O)OC2C1O)O[C@H]3n1ccc2c(N)ncnc21 (stereo partly shown)", "< 6.00"),
    ("C#CCOC1[C@H]2OP(=O)(O)OC[C@H]3O[C@@H](n4cnc5c(=O)[nH]c(N)nc54)[C@@H](OP(=O)(O)OC[C@H]2O[C@H]1n1cnc2c(N)ncnc21)C3O (stereo partly shown)", "< 6.00"),
    ("BP1(=O)OC[C@H]2O[C@@H](n3cnc4c(N)ncnc43)C(O)[C@H]2OP(=O)(O)OC[C@H]2O[C@@H](n3cnc4c(=O)[nH]c(N)nc43)[C@@H](O1)C2O (single isomer, unassigned)", "> 7.00"),
    ("Nc1nc2c(ccn2[C@@H]2O[C@@H]3COP(=O)(S)O[C@@H]4C(O)[C@H](n5cnc6c(N)ncnc65)O[C@@H]4COP(=O)(S)O[C@H]2C3O)c(=O)[nH]1 (single isomer, unassigned)", "6.00 to 7.00"),
    ("Nc1nc2c(ncn2[C@@H]2O[C@@H]3COP(=O)(O)OC4C[C@H](c5ccc6ccc7cccc8ccc5c6c78)O[C@@H]4COP(=O)(S)OC2C3O)c(=O)[nH]1 (single isomer, unassigned)", "< 6.00"),
    ("Nc1nc2c(ncn2[C@@H]2O[C@@H]3COP(=O)(O)OC4C(O)[C@H](n5cnc6c(N)ncnc65)O[C@@H]4COP(=O)(S)OC2C3O)c(=O)[nH]1 (single isomer, unassigned)", "6.00 to 7.00"),
    ("Nc1nc2c(ncn2[C@@H]2O[C@@H]3COP(=O)(O)OC4C(O)[C@H](n5cnc6c(N)ncnc65)O[C@@H]4COP(=O)(O)OC2C3O)c(=O)[nH]1 (stereo in doubt) [Example E1]", "> 7.00"),
]

Reported pEC50 for Nc1nc2c(ncn2[C@@H]2O[C@@H]3COP(=O)(O)OC4C[C@H](n5ccc6ccccc65)O[C@@H]4COP(=O)(O)OC2C3OCC(F)(F)F)c(=O)[nH]1 (stereo in doubt) was < 6.00

###

Tested on: THP1 luciferase reporter cells
Method notes: cells
Format: cell-based
Setup conditions: Homo sapiens, THP-1, 16 h, read-out: THP1-ISG-Luc with PFO, EC50
Metric name: EC50

Example results:
# Compound, Measurement target, Endpoint result
data = [
    ("Nc1nc2c(ccn2[C@@H]2O[C@@H]3COP(=O)(O)OC4C(O)[C@H](n5cnc6c(N)ncnc65)O[C@@H]4COP(=O)(S)OC2C3O)c(=O)[nH]1 (stereo in doubt) [EB3]", "THP1 luciferase reporter cells", "< 100 nM"),
    ("Nc1nc2c(cnn2[C@@H]2O[C@@H]3COP(=O)(S)OC4C(O)[C@H](n5cnc6c(N)ncnc65)O[C@@H]4COP(=O)(S)OC2C3O)c(=O)[nH]1 (single isomer, unassigned) [EB7]", "THP1 luciferase reporter cells", "> 1000 nM"),
    ("Nc1nc2c(ncn2[C@@H]2O[C@@H]3COP(=O)(S)O[C@@H]4C(O)[C@H](n5ccc6c(N)ncnc65)O[C@@H]4COP(=O)(S)O[C@H]2C3O)c(=O)[nH]1 (single isomer, unassigned) [Example E15]", "THP1 luciferase reporter cells", "> 1000 nM"),
    ("BP1(=O)OC[C@H]2O[C@@H](n3cnc4c(=O)[nH]c(N)nc43)C(OP(=O)(O)OC[C@H]3O[C@@H](n4cnc5c(N)ncnc54)C(O)C3O1)C2O (stereo in doubt) [EA10]", "THP1 luciferase reporter cells", "< 100 nM"),
    ("Nc1nc2c(ccn2[C@@H]2O[C@@H]3COP(=O)(O)OC4C(O)[C@H](n5ccc6c(N)ncnc65)O[C@@H]4COP(=O)(O)OC2C3O)c(=O)[nH]1 (stereo in doubt) [EA1]", "THP1 luciferase reporter cells", "100 to 1000 nM"),
]

EC50 in this record for C#CCOc1nc(N)nc2c1ncn2[C@@H]1O[C@@H]2COP(=O)(O)OC3C(O)[C@H](n4cnc5c(N)ncnc54)O[C@@H]3COP(=O)(O)OC1C2O (stereo in doubt) [Example E4] : < 100 nM

Lookup result for CCCC1C2OP(=O)(O)OC[C@H]3O[C@@H](n4cnc5c(N)ncnc54)C(O)C3OP(=O)(O)OC[C@H]1O[C@H]2n1cnc2c(=O)[nH]c(N)nc21 (stereo in doubt) [EC24] ; measured EC50: < 100 nM

Sure, the documented EC50 for Nc1nc2c(ncn2[C@@H]2O[C@@H]3COP(=O)(O)OC4C[C@H](c5cccc6ccccc56)O[C@@H]4COP(=O)(O)OC2C3OCC(F)(F)F)c(=O)[nH]1 (stereo in doubt) [EC19] is > 1000 nM

Field EC50 (entry Nc1nc2c(ccn2[C@@H]2O[C@@H]3COP(=O)(O)OC4C(O)[C@H](n5cnc6c(NCCO)ncnc65)O[C@@H]4COP(=O)(S)OC2C3O)c(=O)[nH]1 (stereo in doubt) [EB5] ) reads 100 to 1000 nM

Given item Nc1nc2c(ncn2[C@@H]2O[C@@H]3COP(=O)(O)OC4C(O)[C@H](n5cnc6c(N)ncnc65)O[C@@H]4COP(=O)(O)OC2C3CCO)c(=O)[nH]1 (stereo in doubt) [EC12] , the value recorded as its EC50 is < 100 nM

Entry BP1(=O)OC[C@H]2O[C@@H](n3cnc4c(N)ncnc43)C(O)C2OP(=O)(O)OC[C@H]2O[C@@H](n3cnc4c(=O)[nH]c(N)nc43)C(O1)C2O (single isomer, unassigned) [EA9] , EC50 reported as < 100 nM

Record summary for Nc1nc2c(ncn2[C@@H]2O[C@@H]3COP(=O)(O)OC4C(O)[C@H](n5ccc6c(N)ncnc65)O[C@@H]4COP(=O)(O)OC2C3O)c(=O)[nH]1 (stereo in doubt) [Example E5] : reported EC50 = > 1000 nM

Short answer for BP1(=O)OC[C@H]2O[C@@H](n3cnc4c(=O)[nH]c(N)nc43)[C@@H](OP(B)(=O)OC[C@H]3O[C@@H](n4cnc5c(N)ncnc54)[C@@H](O)C3O1)C2O (stereo in doubt) [EA11] : EC50 was < 100 nM
